These entries and their values trace back to PubChem BioAssay AID1259407.

system: CCRIS mutagenicity, Ames/micronucleus/aberration tests; test: CCRIS mutagenicity studies; conditions: Test System: AMES SALMONELLA TYPHIMURIUM; Strain/Indicator: TA100; Metabolic Activation: NONE; Method: STANDARD PLATE
Calls of active or inactive are those of the source. The rule behind the calls is not given here.
Outcome codes: active, inactive

Compound	Cat
C=C(C)C(=O)OCCCC	inactive
Nc1ccc(N)c2c1C(=O)c1cccc([N+](=O)[O-])c1C2=O	inactive
Cc1cc(Cl)ccc1N	inactive
CCN(CC)c1ccc(N=Nc2c(Cl)cc([N+](=O)[O-])cc2[N+](=O)[O-])cc1	active
CCN(CC)CCNc1ccc(C)c2sc3ccccc3c(=O)c12	inactive
O=[N+]([O-])c1ccccc1C(F)(F)F	inactive
C=CCCCCCCCCCCCCC	inactive
CNCCC=C1c2ccccc2CCc2ccccc21	inactive
C[C@]12CC[C@H](O)C[C@@H]1CC[C@@H]1[C@@H]2CC[C@]2(C)NC(=O)CC[C@@H]12	inactive
CC1(C)C[C@H]2C=C(C=O)[C@]34C[C@]3(C(=O)O[C@@H]4O)[C@H]2C1	active
CC(C)(C)NCC(O)c1cc(Cl)c(N)c(C(F)(F)F)c1 (stereo unspecified)	inactive
O=C/C(=C(\Cl)C(=O)O)C(Cl)Cl	active
Cl/C=C/Cl	active
Nc1ccc2c([nH]c3ccccc32)c1[N+](=O)[O-]	active
O=Cc1ccc(CO)o1	inactive
CC(C)(O)[C@H]1Cc2cc3ccc(=O)oc3cc2O1	active
CC1=Nc2ccccc2C1(C)C	inactive
CSCCC(NC(=O)COc1cc(Cl)c(Cl)cc1Cl)C(=O)O (stereo unspecified)	inactive
CC1=C(/C=C/C(C)=C/C=C/C(C)=C/C=C/C=C(C)/C=C/C=C(C)/C=C/C2=C(C)CCCC2(C)C)C(C)(C)CCC1	inactive
CCCC(=O)Nc1snc2ccc(Cl)cc12	inactive
CC[C@@]1(O)C[C@H](O[C@H]2C[C@H](N(C)C)[C@H](O[C@H]3C[C@H](O)[C@H](O[C@H]4CCC(=O)[C@H](C)O4)[C@H](C)O3)[C@H](C)O2)c2c(cc3c(c2O)C(=O)c2c(O)cccc2C3=O)[C@H]1C(=O)OC	inactive
COc1cc(N=Nc2ccc(N)cc2)c(C)cc1N=Nc1c(S(=O)(=O)O)cc2ccc(N)cc2c1O	inactive
O=P(O)(O)OCC(O)CO (stereo unspecified)	inactive
Nc1ccc(CCc2ccc(N)cc2)cc1	inactive
N/C(=N\O)c1ccc(O)c(O)c1	inactive
CC(C(=O)O)c1cccc(C(=O)c2ccccc2)c1 (stereo unspecified)	inactive
